assay-remarks: Aqueous solubility
Assay type: physicochemical
condition-parameters: McIlvaine buffer with 2.5% DMSO, aqueous buffer, kinetic from dmso stock, McIlvaine buffer pH 6.8, 2.5% DMSO
quantity-name: solubility at 24 h (µg/mL)

Solved cases (3 shown):
{"molecule": "CC(=O)C1=C(C)N(c2cccc(C(F)(F)F)c2)C(=O)N(C)[C@@H]1c1ccc(C#N)cc1-c1ccn(C)c(=O)c1 [Example 17]", "solubility at 24 h [µg/mL]": 62}
{"molecule": "CC(=O)C1=C(C)N(c2cccc(C(F)(F)F)c2)C(=O)N(C)C1c1ccc(C#N)cc1C(=O)N1CCn2ncnc2C1 (centres unmarked) [Example 1.73]", "solubility at 24 h [µg/mL]": 73}
{"molecule": "CC(=O)C1=C(C)N(c2cccc(C(F)(F)F)c2)C(=O)N(C)C1c1ccc(C#N)cc1C(=O)NCC(C)(C)O (centres unmarked) [Example 1.22]", "solubility at 24 h [µg/mL]": 65}

I: CC(=O)C1=C(C)N(c2cccc(C(F)(F)F)c2)C(=O)N(C)[C@@H]1c1ccc(C#N)cc1-c1ccc(=O)n(C)c1 [Example 16]
II: CC(=O)C1=C(C)N(c2cccc(C(F)(F)F)c2)C(=O)N(C)C1c1ccc(C#N)cc1-c1nnc(C)o1 (centres unmarked) [Example 8]
IN: Which entry has a larger number for solubility at 24 h, I or II ? In your reply, give the label of the chosen option.
OUT: I

Recorded values, source patent US9290457B2.
